compounds and their reported EC50
system: Dengue virus type 2 NG-C or Dengue virus type 4 H241; assay: Dengue antiviral assay (DENV); assay type: cell-based; settings: Dengue virus, Huh7.5, 144 h, Huh-7.5 cells, five to six days, CellTiter-Glo
Please respond with the number in nM and leave the unit unwritten.

// known answers, use as guide
COMPOUND	MEASUREMENT TARGET	ASSAY VALUE
CC(C)CCOC(=O)C[C@H](NP(=O)(OC[C@@]1(F)O[C@@](C#N)(c2ccc3c(N)ncnn23)[C@H](O)[C@@H]1O)Oc1ccccc1)C(=O)OCCC(C)C (stereo partly drawn)	Dengue virus type 2 NG-C or Dengue virus type 4 H241	1.4
C[C@H](NP(=O)(OC[C@@]1(F)O[C@@](C#N)(c2ccc3c(N)ncnn23)[C@H](O)[C@@H]1O)Oc1ccccc1)C(=O)OCC(C)(C)C (stereo partly drawn)	Dengue virus type 2 NG-C or Dengue virus type 4 H241	110

Now take the following compound into account.
Record CCC(CC)COC(=O)[C@@H](C)NP(=O)(OC[C@H]1O[C@@](C#N)(c2ccc3c(N)ncnn23)[C@H](O)[C@@H]1O)Oc1ccccc1 (stereo partly drawn) [Compound C1, reference compound] , field EC50: 130
